Biological target: Acetylcholinesterase (Homo sapiens, UniProt P22303)
Sequence (P22303 whole entry): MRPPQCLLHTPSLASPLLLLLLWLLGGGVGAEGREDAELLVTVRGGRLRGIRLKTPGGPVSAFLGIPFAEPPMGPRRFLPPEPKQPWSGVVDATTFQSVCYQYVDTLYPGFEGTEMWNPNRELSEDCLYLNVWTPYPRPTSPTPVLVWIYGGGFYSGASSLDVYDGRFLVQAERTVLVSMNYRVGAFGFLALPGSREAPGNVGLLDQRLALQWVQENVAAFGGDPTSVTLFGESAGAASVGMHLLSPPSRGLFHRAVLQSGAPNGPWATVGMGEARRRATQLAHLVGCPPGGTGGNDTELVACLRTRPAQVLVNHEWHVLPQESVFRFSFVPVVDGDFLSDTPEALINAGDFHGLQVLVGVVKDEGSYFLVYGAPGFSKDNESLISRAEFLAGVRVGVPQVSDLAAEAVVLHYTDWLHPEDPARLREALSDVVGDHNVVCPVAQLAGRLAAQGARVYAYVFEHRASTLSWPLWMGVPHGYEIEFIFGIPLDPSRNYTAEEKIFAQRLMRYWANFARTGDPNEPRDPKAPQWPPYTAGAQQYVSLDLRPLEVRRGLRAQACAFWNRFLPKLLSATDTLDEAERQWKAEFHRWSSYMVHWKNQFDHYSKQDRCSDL
pIC50: −log10 of the molar value.
Criterion: pIC50 meeting or surpassing 6. Met: label 1. Not met: label 0.

// inclusive: pIC50 at least 6? input: CC1(C)CC(=O)C2=C(C1)Nc1nc3c(c(N)c1C2c1ccncc1)CCCC3 (stereo not given)
label 0

// inclusive: pIC50 at least 6? input: COc1ccc(C2C3=C(CC(C)(C)CC3=O)Nc3nc4c(c(N)c32)CCCC4)cc1 (stereo not given)
label 1

// inclusive: pIC50 at least 6? input: CC1(C)CC(=O)C2=C(C1)Nc1nc3c(c(N)c1C2c1ccc(F)cc1)CCCC3 (stereo not given)
label 0
